- Tested on: β-AR binding sites on THP-1 cell membranes
- procedure_details: Saturation radioligand binding of 125I-CYP on crude THP-1 cell membranes
- Set-up: species or system human
- assay_setup: read-out: equilibrium dissociation constant (Kd) of 125I-CYP; THP-1 membranes, saturation binding, n = 6
pKd: −log10 of the molar value.

compound	system_under_test	pKd
CC(C)(C)NCC(O)COc1cccc2[nH]c(C#N)c(I)c12 (single isomer, unassigned; (-)) [^125I-CYP, (–)3-[^125I]iodocyanopindolol]	β-AR binding sites on THP-1 cell membranes	10.52
